Assay: Stability indicating HPLC assay and related substances on storage (Example 3)
Type: physicochemical
Conditions: 1 month, 40° C./75% RH
Threshold 80 % w/w. M6G Assay, Anhydrous basis below it: Criterion met. M6G Assay, Anhydrous basis at it or above: Criterion not met.

# Compound, Class label
records = [
    ("CN1CCC23c4c5ccc(O)c4OC2C(OC2OC(C(=O)O)C(O)C(O)C2O)C=CC3C1C5.O=P(O)(O)O (stereo not shown) [Morphine-6-glucuronide phosphate]", "Criterion not met"),
    ("CN1CC[C@]23c4c5ccc(O)c4O[C@H]2[C@@H](O[C@@H]2O[C@H](C(=O)O)[C@@H](O)[C@H](O)[C@H]2O)C=C[C@H]3[C@H]1C5 [Morphine-6-glucuronide base, morphine-6-β-D-glucuronide]", "Criterion not met"),
]

IN: Lab log: compare recorded M6G Assay, Anhydrous basis with 80 % w/w; is it strictly lower for CN1CCC23c4c5ccc(O)c4OC2C(OC2OC(C(=O)O)C(O)C(O)C2O)C=CC3C1C5.CN1CCC23c4c5ccc(O)c4OC2C(OC2OC(C(=O)O)C(O)C(O)C2O)C=CC3C1C5.O=C(O)C=CC(=O)O (stereo not shown) [Morphine-6-glucuronide fumarate] ?
OUT: Criterion not met

IN: Confirm or reject: M6G Assay, Anhydrous basis of CN1CCC23c4c5ccc(O)c4OC2C(OC2OC(C(=O)O)C(O)C(O)C2O)C=CC3C1C5.CN1CCC23c4c5ccc(O)c4OC2C(OC2OC(C(=O)O)C(O)C(O)C2O)C=CC3C1C5.O=S(=O)(O)O (stereo not shown) [Morphine-6-glucuronide sulphate] lies strictly below 80 % w/w
OUT: Criterion met

IN: Dear colleague, could you confirm whether M6G Assay, Anhydrous basis of Br.CN1CC[C@]23c4c5ccc(O)c4O[C@H]2[C@@H](O[C@@H]2O[C@H](C(=O)O)[C@@H](O)[C@H](O)[C@H]2O)C=C[C@H]3[C@H]1C5 [Morphine-6-glucuronide hydrobromide] falls below 80 % w/w? Thanks.
OUT: Criterion not met

IN: Could you please tell me whether M6G Assay, Anhydrous basis recorded for CN1CCC23c4c5ccc(O)c4OC2C(OC2OC(C(=O)O)C(O)C(O)C2O)C=CC3C1C5.CN1CCC23c4c5ccc(O)c4OC2C(OC2OC(C(=O)O)C(O)C(O)C2O)C=CC3C1C5.O=C(O)C=CC(=O)O (stereo not shown) [Morphine-6-glucuronide maleate] is less than 80 % w/w?
OUT: Criterion not met

---

Test: Stability indicating HPLC assay and related substances on storage (Example 3)
Type: physicochemical
Settings: 1 month, 60° C.
Property measured: M6G Assay, Anhydrous basis
Kindly format the answer as number then unit.

# Compound, Property measured, Reported result
measured = [
    ("CN1CC[C@]23c4c5ccc(O)c4O[C@H]2[C@@H](O[C@@H]2O[C@H](C(=O)O)[C@@H](O)[C@H](O)[C@H]2O)C=C[C@H]3[C@H]1C5.Cl [Morphine-6-glucuronide hydrochloride]", "M6G Assay, Anhydrous basis", "75.78 % w/w"),
]

Now for another entry.
Record CN1CCC23c4c5ccc(O)c4OC2C(OC2OC(C(=O)O)C(O)C(O)C2O)C=CC3C1C5.CN1CCC23c4c5ccc(O)c4OC2C(OC2OC(C(=O)O)C(O)C(O)C2O)C=CC3C1C5.O=S(=O)(O)O (centres unmarked) [Morphine-6-glucuronide sulphate] , field M6G Assay, Anhydrous basis: 63.84 % w/w

---

Assay: Stability indicating HPLC assay and related substances on storage (Example 3)
Type: physicochemical
Conditions: 3 months, 40° C./75% RH
Property measured: Total Known (%)
Numbers only, in %.

These recorded examples may help you get a feel for the data.
# Compound, Total Known [%]
rows = [
    ("CN1CC[C@]23c4c5ccc(O)c4O[C@H]2[C@@H](O[C@@H]2O[C@H](C(=O)O)[C@@H](O)[C@H](O)[C@H]2O)C=C[C@H]3[C@H]1C5 [Morphine-6-glucuronide base, morphine-6-β-D-glucuronide]", 1.26),
    ("CN1CC[C@]23c4c5ccc(O)c4O[C@H]2[C@@H](O[C@@H]2O[C@H](C(=O)O)[C@@H](O)[C@H](O)[C@H]2O)C=C[C@H]3[C@H]1C5.Cl [Morphine-6-glucuronide hydrochloride]", 7.01),
    ("CN1CCC23c4c5ccc(O)c4OC2C(OC2OC(C(=O)O)C(O)C(O)C2O)C=CC3C1C5.CN1CCC23c4c5ccc(O)c4OC2C(OC2OC(C(=O)O)C(O)C(O)C2O)C=CC3C1C5.O=S(=O)(O)O (stereo not shown) [Morphine-6-glucuronide sulphate]", 2.75),
    ("CN1CCC23c4c5ccc(O)c4OC2C(OC2OC(C(=O)O)C(O)C(O)C2O)C=CC3C1C5.CN1CCC23c4c5ccc(O)c4OC2C(OC2OC(C(=O)O)C(O)C(O)C2O)C=CC3C1C5.O=C(O)C=CC(=O)O (stereo not shown) [Morphine-6-glucuronide maleate]", 3.01),
    ("Br.CN1CC[C@]23c4c5ccc(O)c4O[C@H]2[C@@H](O[C@@H]2O[C@H](C(=O)O)[C@@H](O)[C@H](O)[C@H]2O)C=C[C@H]3[C@H]1C5 [Morphine-6-glucuronide hydrobromide]", 0.72),
]

Below is a list of compounds. For each, state its recorded Total Known.
1. CN1CCC23c4c5ccc(O)c4OC2C(OC2OC(C(=O)O)C(O)C(O)C2O)C=CC3C1C5.O=P(O)(O)O (stereo not shown) [Morphine-6-glucuronide phosphate]
2. CN1CCC23c4c5ccc(O)c4OC2C(OC2OC(C(=O)O)C(O)C(O)C2O)C=CC3C1C5.CN1CCC23c4c5ccc(O)c4OC2C(OC2OC(C(=O)O)C(O)C(O)C2O)C=CC3C1C5.O=C(O)C=CC(=O)O (stereo not shown) [Morphine-6-glucuronide fumarate]

OUT:
1: 1.84; 2: 2.98

---

Give Total Related Substances for every item shown.
Assay: Stability indicating HPLC assay and related substances on storage (Example 3)
Format: physicochemical
Settings: 1 month, 40° C./75% RH

Before answering, review these 3 worked examples.
# Compound, Total Related Substances
records = [
    ("CN1CC[C@]23c4c5ccc(O)c4O[C@H]2[C@@H](O[C@@H]2O[C@H](C(=O)O)[C@@H](O)[C@H](O)[C@H]2O)C=C[C@H]3[C@H]1C5.Cl [Morphine-6-glucuronide hydrochloride]", "15.16%"),
    ("CN1CCC23c4c5ccc(O)c4OC2C(OC2OC(C(=O)O)C(O)C(O)C2O)C=CC3C1C5.CN1CCC23c4c5ccc(O)c4OC2C(OC2OC(C(=O)O)C(O)C(O)C2O)C=CC3C1C5.O=C(O)C=CC(=O)O (stereo not shown) [Morphine-6-glucuronide fumarate]", "2.60%"),
    ("CN1CC[C@]23c4c5ccc(O)c4O[C@H]2[C@@H](O[C@@H]2O[C@H](C(=O)O)[C@@H](O)[C@H](O)[C@H]2O)C=C[C@H]3[C@H]1C5 [Morphine-6-glucuronide base, morphine-6-β-D-glucuronide]", "1.27%"),
]

# evaluate next
In plain terms, Br.CN1CC[C@]23c4c5ccc(O)c4O[C@H]2[C@@H](O[C@@H]2O[C@H](C(=O)O)[C@@H](O)[C@H](O)[C@H]2O)C=C[C@H]3[C@H]1C5 [Morphine-6-glucuronide hydrobromide] has a documented Total Related Substances of 0.80%

---

Give Known Related Substances HN75076 for every item shown.
Experiment: Stability indicating HPLC assay and related substances on storage (Example 3)
Format: physicochemical
Details: 1 month, 40° C./75% RH
Answers are plain numbers, in %.

# Compound, Known Related Substances HN75076 / %
measured = [
    ("Br.CN1CC[C@]23c4c5ccc(O)c4O[C@H]2[C@@H](O[C@@H]2O[C@H](C(=O)O)[C@@H](O)[C@H](O)[C@H]2O)C=C[C@H]3[C@H]1C5 [Morphine-6-glucuronide hydrobromide]", 0.01),
]

Please state, for each entry, its recorded Known Related Substances HN75076.
1. CN1CC[C@]23c4c5ccc(O)c4O[C@H]2[C@@H](O[C@@H]2O[C@H](C(=O)O)[C@@H](O)[C@H](O)[C@H]2O)C=C[C@H]3[C@H]1C5.Cl [Morphine-6-glucuronide hydrochloride]
2. CN1CCC23c4c5ccc(O)c4OC2C(OC2OC(C(=O)O)C(O)C(O)C2O)C=CC3C1C5.CN1CCC23c4c5ccc(O)c4OC2C(OC2OC(C(=O)O)C(O)C(O)C2O)C=CC3C1C5.O=C(O)C=CC(=O)O (centres unmarked) [Morphine-6-glucuronide fumarate]
3. CN1CCC23c4c5ccc(O)c4OC2C(OC2OC(C(=O)O)C(O)C(O)C2O)C=CC3C1C5.CN1CCC23c4c5ccc(O)c4OC2C(OC2OC(C(=O)O)C(O)C(O)C2O)C=CC3C1C5.O=C(O)C=CC(=O)O (centres unmarked) [Morphine-6-glucuronide maleate]
4. CN1CCC23c4c5ccc(O)c4OC2C(OC2OC(C(=O)O)C(O)C(O)C2O)C=CC3C1C5.CN1CCC23c4c5ccc(O)c4OC2C(OC2OC(C(=O)O)C(O)C(O)C2O)C=CC3C1C5.O=S(=O)(O)O (centres unmarked) [Morphine-6-glucuronide sulphate]

OUT:
1: 0.34; 2: 0.03; 3: 0.03; 4: 0.06
